Reported %Inh values for the following molecules.
system: PRKCI; settings: concentration: 1 μM, replicates: in singlicate; n = 1;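 also: KINOMEscan kinase panel screen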
measured metric: %Inh (%)

smiles_record=Cc1cccc(-c2nc(C)cc(Nc3ccncc3)n2)n1 assay_system=PRKCI numeric_value=12
smiles_record=O=C(Nc1n[nH]c2cc(-c3cccc(F)c3F)ccc12)C1CC1 assay_system=PRKCI numeric_value=21
smiles_record=COc1ccc(Nc2nccc(-c3cccc(NC(=O)c4cc5cc(F)ccc5[nH]4)c3)n2)cc1 assay_system=PRKCI numeric_value=32
smiles_record=Cc1cc(-c2ccc3c(c2)CC[C@@H](N[C@@H](C)c2ccccc2)C3)cnc1N.Cl assay_system=PRKCI numeric_value=0
smiles_record=O=C(Nc1n[nH]c2nc(-c3nccs3)c(Br)cc12)C1CC1 assay_system=PRKCI numeric_value=5

###

system: VPS34; construct: gene PIK3C3; details: concentration: 1 μM, replicates: in singlicate; n = 1
measured metric: %Inh (%)

compound="Cc1nnc(-c2ccc3occ(-c4ccc(S(C)=O)cc4)c3c2)[nH]1 (stereo not drawn)" assay_system=VPS34 numeric_value=88
compound=COc1ccc(C2=C(Nc3cccc(C(=O)O)c3)C(=O)NC2=O)cc1 assay_system=VPS34 numeric_value=33
compound=Cc1cccc(-c2nc(Nc3ccncc3)c3ccccc3n2)n1 assay_system=VPS34 numeric_value=52

###

test system: PFTAIRE2; settings: concentration: 1 μM, replicates: in singlicate; n = 1
measured metric: %Inh (%)

compound="Cc1c(Cn2ccn3c(=O)cc(N4CCOCC4)nc23)cccc1C(F)(F)F [GSK2289044]" measured_metric=%Inh unit_string=% numeric_value=17
compound="COc1cc2nccc(Nc3ccc(NC(=O)c4ccc(C)cc4)c(O)c3)c2cc1OC.Cl [GW440132]" measured_metric=%Inh unit_string=% numeric_value=26
compound="O=C(Nc1n[nH]c2nc(-c3nccs3)c(Br)cc12)C1CC1 [SB-742251]" measured_metric=%Inh unit_string=% numeric_value=4
compound=CC(C)(C)c1ccc(C(=O)Nc2cn3cc(Cl)ccc3n2)cc1 measured_metric=%Inh unit_string=% numeric_value=0
compound="Cl.Oc1ccc(-c2nc(-c3ccccc3)[nH]c2-c2ccncc2)cc1 [SB-428218]" measured_metric=%Inh unit_string=% numeric_value=0
compound="COc1cccc(-c2cc(-c3c[nH]nc3-c3ccccn3)ccn2)c1 [GW680338]" measured_metric=%Inh unit_string=% numeric_value=10
compound="CS(=O)(=O)c1ccc(-c2nc3n(c2-c2ccncc2)CCC3)cc1 [SKF-105942]" measured_metric=%Inh unit_string=% numeric_value=12
compound="Cl.O=C(Nc1cccc(-c2nn3ncccc3c2-c2ccnc(Nc3cccnc3)n2)c1)c1c(F)cccc1F [GSK312879]" measured_metric=%Inh unit_string=% numeric_value=22
compound="COc1ccc(C2=C(Nc3cccc(C(=O)O)c3)C(=O)NC2=O)cc1 [SB-390765]" measured_metric=%Inh unit_string=% numeric_value=24
compound=Fc1cccc(COc2nnc(-c3ccc4c(c3)CCO4)o2)c1 measured_metric=%Inh unit_string=% numeric_value=7
compound="COc1ccccc1-c1ccc2c(NC(=O)C3CC3)n[nH]c2n1 [SB-711239]" measured_metric=%Inh unit_string=% numeric_value=9
compound="COc1cccc(NC(=O)NC2CCN(c3ccnc(Nc4ccc(F)cc4)n3)C2)c1 (stereo not drawn) [GSK1379721]" measured_metric=%Inh unit_string=% numeric_value=28
